assay-overview: chemical genetic growth profiling, strain panel (AID 1159580);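 note: tested at 20 µM; growth read once vehicle control cultures reached saturation at 30 °C; 1 = growth at the plate median or of vehicle wells; lower values mean less growth of the strain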
particulars: S. cerevisiae deletion strains, growth OD, locus YHR013C, strain ard1, active compounds read low
Screen size: about 5,500 compounds; about 2,000 (36%) were called active. Not shown: some 18% with an inconclusive outcome. Some of the results follow.
normalized growth overview
Write the value as a bare number.

O=c1cc(-c2ccc(O)cc2)oc2cc(O[C@@H]3O[C@H](CO)[C@@H](O)[C@H](O)[C@H]3O)cc(O)c12 ... 0.994
NS(=O)(=O)c1cc(C2(O)NC(=O)c3ccccc32)ccc1Cl (configuration not stated) ... 0.952
CCOCN(C(=O)CCl)c1c(C)cccc1CC ... 0.988
CO[C@@]1(NC(=O)C(C(=O)O)c2ccc(O)cc2)C(=O)N2C(C(=O)O)=C(CSc3nnnn3C)CO[C@@H]21 (some centres not stated) ... 0.962
C[C@@H]1O[C@@H](OC[C@H]2OC(Oc3c(-c4ccc(OCCO)c(OCCO)c4)oc4cc(OCCO)cc(O)c4c3=O)[C@H](O)[C@@H](O)[C@@H]2O)[C@H](O)[C@H](O)[C@H]1O (some centres not stated) ... 0.973
COc1ccc(-c2oc3c(CC=C(C)C)c(O[C@@H]4O[C@H](CO)[C@@H](O)[C@H](O)[C@H]4O)cc(O)c3c(=O)c2O[C@@H]2O[C@@H](C)[C@H](O)[C@@H](O)[C@H]2O)cc1 ... 1.03

Q: Indicate the recorded normalized growth value for this compound: CN1C[C@H](C(=O)N[C@]2(C)O[C@@]3(O)[C@@H]4CCCN4C(=O)[C@H](Cc4ccccc4)N3C2=O)C[C@@H]2c3cccc4[nH]cc(c34)C[C@H]21
Ans: 0.971

Q: Quote normalized growth reported for O=C1C=C2C(=CCOC2O)O1 (configuration not stated) please.
Ans: 0.589

Q: # return recorded normalized growth for input CC1O[C@@H](Oc2c(-c3ccc(O)c(O)c3)oc3cc(O)cc(O)c3c2=O)[C@H](O)[C@H](O)[C@H]1O (some centres not stated)
Ans: 0.982

Q: Specify normalized growth for O=c1c(O)c(-c2ccc(O)cc2O)oc2cc(O)cc(O)c12 and stop.
Ans: 0.962

Q: Indicate the recorded normalized growth value for this compound: COc1ccc(-c2oc3cc(O[C@H]4O[C@H](CO)[C@@H](O)[C@H](O)[C@H]4O)c(OC)c(O)c3c(=O)c2OC)cc1O
Ans: 1.01

src = PubChem BioAssay AID1159580
